test system: PKC mediated IL-2 production in human primary T cells; assay: IL-2 ELISA, human primary T cell, anti CD3+CD28+ (whole cell functional assay for PKC mediated IL-2 production); format: cell-based; settings: human primary T cells stimulated with anti-CD3 + anti-CD28, 24 h, IL-2 by ELISA, 8 pt, read-out: IL2 ELISA, Human primary T cell, anti-CD3 + CD28, 8 pt (IC50)
pIC50: −log10 of the molar value.
RESULT TYPE: pIC50

{"columns": ["COMPOUND", "MEASUREMENT TARGET", "pIC50"],
 "data": [
  ["Cn1nnn(-c2cc(Nc3ncc(Cl)c(NC[C@@H]4CCCN5CCCC[C@H]45)n3)c(F)cc2O)c1=O", "PKC mediated IL-2 production in human primary T cells", 5.70],
  ["Fc1cc(C2CC2)c(-n2cnnn2)cc1Nc1ncc(C(F)(F)F)c(NC[C@@H]2CCCN3CCCC[C@H]23)n1", "PKC mediated IL-2 production in human primary T cells", 5.38],
  ["COc1cnc(Nc2ccc(C)c(C#N)c2)nc1NC[C@@H]1CCCN2CCCC[C@H]12", "PKC mediated IL-2 production in human primary T cells", 5.60],
  ["Cn1nnn(-c2cc(Nc3ncc(F)c(NC[C@@H]4CCCN5CCCC[C@H]45)n3)ccc2OC2COC2)c1=O", "PKC mediated IL-2 production in human primary T cells", 6.70]
]}

[P] Fc1cnc(Nc2ccc3c(c2)OC(F)(F)C(F)(F)O3)nc1NC[C@@H]1CCCN2CCCC[C@H]12
[Q] COc1cc(Nc2nccc(NC[C@@H]3CCCN4CCCC[C@H]34)n2)cc(-n2nnnc2C)c1
Could you determine which record has the numerically smaller pIC50? Candidates: P and Q Answer by quoting the chosen item's label.
P

[A] CN(C)c1cnc(Nc2ccc3oc(=O)[nH]c3c2)nc1NC[C@@H]1CCCN2CCCC[C@H]12
[B] CC1(C)Oc2ccc(Nc3ncc(F)c(NC[C@@H]4CCCN5CCCC[C@H]45)n3)cc2-n2nnnc21
I'd appreciate it if you could identify which of A and B has the greater pIC50. Indicate your choice by writing its label.
B
(B: 7.11, A: 5.27)

* * *

tested on: PKC mediated IL-2 production in human primary T cells; test: IL-2 ELISA, human primary T cell, anti CD3+CD28+ (whole cell functional assay for PKC mediated IL-2 production); assay type: cell-based; conditions: human primary T cells stimulated with anti-CD3 + anti-CD28, 24 h, IL-2 by ELISA, 8 pt, read-out: IL2 ELISA, Human primary T cell, anti-CD3 + CD28, 8 pt (IC50)
pIC50: −log10 of the molar value.
RESULT TYPE: pIC50

{"columns": ["SAMPLE SMILES", "MEASUREMENT TARGET", "pIC50"],
 "data": [
  ["COc1cc(Nc2ncc(F)c(NC[C@@H]3CCCN4CCCC[C@H]34)n2)cc(OC)c1", "PKC mediated IL-2 production in human primary T cells", 5.97],
  ["Cn1nnn(-c2cc(Nc3ncc(C#N)c(NC[C@@H]4CCCN5CCCC[C@H]45)n3)c(F)cc2OCC(O)(C(F)(F)F)C(F)(F)F)c1=O", "PKC mediated IL-2 production in human primary T cells", 6.04]
]}

[1] Cc1nnnn1-c1cc(Nc2ncc(Cl)c(NC[C@@H]3CCCN4CCCC[C@H]34)n2)ccc1F
[2] COc1cnc(Nc2ccc3oc(=O)[nH]c3c2)nc1NC[C@@H]1CCCN2CCCC[C@H]12
Pick one: 1 or 2 . Which one has the lower reported pIC50? Write the label of whichever entry you select.
2
(2: 4.81, 1: 7.27)

* * *

system: PKC mediated IL-2 production in human primary T cells; assay: IL-2 ELISA, human primary T cell, anti CD3+CD28+ (whole cell functional assay for PKC mediated IL-2 production); format: cell-based; details: human primary T cells stimulated with anti-CD3 + anti-CD28, 24 h, IL-2 by ELISA, 8 pt, read-out: IL2 ELISA, Human primary T cell, anti-CD3 + CD28, 8 pt (IC50)
pIC50: −log10 of the molar value.
RESULT TYPE: pIC50

Past entries and their recorded results:
{"columns": ["MOLECULE", "pIC50"],
 "data": [
  ["Cc1nnnn1-c1cc(Nc2nccc(NC[C@@H]3CCCN4CCCC[C@H]34)n2)ccc1F [Compound 49]", 6.05],
  ["Cc1nnnn1-c1cc(Nc2ncc(C(N)=O)c(NC[C@@H]3CCCN4CCCC[C@H]34)n2)ccc1F [Compound 126]", 5.80],
  ["COc1ccc(Nc2ncc(C(N)=O)c(NC[C@@H]3CCCN4CCCC[C@H]34)n2)cc1-n1nnnc1C [Compound 125]", 5.75],
  ["N#Cc1cnc(Nc2ccc(F)c(-n3nnnc3C3CC3)c2)nc1NC[C@@H]1CCCN2CCCC[C@H]12 [Compound 122]", 7.69],
  ["COc1ccc(Nc2ncc(OC)c(NC[C@@H]3CCCN4CCCC[C@H]34)n2)cc1-n1nnnc1C [Compound 77]", 5.62]
]}

[a] Cn1nnn(-c2cc(Nc3ncc(F)c(NC[C@@H]4CCCN5CCCC[C@H]45)n3)c(F)cc2OC(C)(C)CO)c1=O [Compound 148]
[b] Cc1nnnn1-c1ccc(F)c(Nc2ncc(C(N)=O)c(NC[C@@H]3CCCN4CCCC[C@H]34)n2)c1 [Compound 127]
# argmax over pIC50 for candidates a and b Returns: label corresponding to the selected item.
b

[A] Cn1nnnc1Oc1cc(Nc2ncc(F)c(NC[C@@H]3CCCN4CCCC[C@H]34)n2)c(F)cc1C1CC1 [Compound 28]
[B] Cc1nnnn1-c1ccc(F)c(Nc2ncc(F)c(NC[C@@H]3CCCN4CCCC[C@H]34)n2)c1 [Compound 7]
// pick min by pIC50: A , B Let me know the label of the one you choose.
A
(A: 5.74, B: 6.37)

* * *

test system: PKC mediated IL-2 production in human primary T cells; assay: IL-2 ELISA, human primary T cell, anti CD3+CD28+ (whole cell functional assay for PKC mediated IL-2 production); type: cell-based; conditions: human primary T cells stimulated with anti-CD3 + anti-CD28, 24 h, IL-2 by ELISA, 8 pt, read-out: IL2 ELISA, Human primary T cell, anti-CD3 + CD28, 8 pt (IC50)
RESULT TYPE: IC50 (µM)

Known IC50 results, listed for orientation:
{"columns": ["MOLECULE", "MEASUREMENT TARGET", "MEASUREMENT UNITS", "MEASURED VALUE"],
 "data": [
  ["O=c1[nH]c2cc(Nc3ncc(C(F)(F)F)c(NC[C@@H]4CCCN5CCCC[C@H]45)n3)ccc2o1", "PKC mediated IL-2 production in human primary T cells", "µM", 21.7],
  ["COc1cc(Nc2ncc(OC)c(NC[C@@H]3CCCN4CCCC[C@H]34)n2)cc(OC)c1", "PKC mediated IL-2 production in human primary T cells", "µM", 3.87],
  ["Cn1nnn(-c2cc(Nc3ncc(C#N)c(NC[C@@H]4CCCN5CCCC[C@H]45)n3)c(F)cc2C2CC2)c1=O", "PKC mediated IL-2 production in human primary T cells", "µM", 0.0509],
  ["COc1cnc(Nc2cccc(C#N)c2)nc1NC[C@@H]1CCCN2CCCC[C@H]12", "PKC mediated IL-2 production in human primary T cells", "µM", 5.35],
  ["N#Cc1cnc(Nc2ccc(OCCO)c(-n3cnnn3)c2)nc1NC[C@@H]1CCCN2CCCC[C@H]12", "PKC mediated IL-2 production in human primary T cells", "µM", 0.0276],
  ["COc1cnc(Nc2ccc(C)c(-n3cnnn3)c2)nc1NC[C@@H]1CCCN2CCCC[C@H]12", "PKC mediated IL-2 production in human primary T cells", "µM", 3.27]
]}

[P] Cn1nnn(-c2cc(Nc3ncc(Cl)c(NC[C@@H]4CCCN5CCCC[C@H]45)n3)c(F)cc2C2CC2)c1=O
[Q] Cn1nnn(-c2cc(Nc3ncc(C(F)(F)F)c(NC[C@@H]4CCCN5CCCC[C@H]45)n3)c(F)cc2C2CC2)c1=O
[R] Cc1ccc(Nc2ncc(F)c(NC[C@@H]3CCCN4CCCC[C@H]34)n2)cc1C#N
[S] Cn1nnn(-c2cc(Nc3ncc(C#N)c(NC[C@@H]4CCCN5CCCC[C@H]45)n3)c(F)cc2OCC2(C)COC2)c1=O
[T] CC1(C)Oc2cc(Nc3ncc(F)c(NC[C@@H]4CCCN5CCCC[C@H]45)n3)ccc2N(CC2CC2)C1=O
// ascending sort on recorded IC50 Hello, could you send the labels back in the order asked? Thank you.
T, R, S, P, Q

[1] CC(O)COc1ccc(Nc2ncc(C#N)c(NC[C@@H]3CCCN4CCCC[C@H]34)n2)cc1C#N (stereo partly drawn)
[2] CC(O)COc1ccc(Nc2ncc(F)c(NC[C@@H]3CCCN4CCCC[C@H]34)n2)cc1C#N (stereo partly drawn)
[3] COc1cnc(Nc2cc(-n3nnn(C)c3=O)c(C3CC3)cc2F)nc1NC[C@@H]1CCCN2CCCC[C@H]12
[4] Fc1cc(Nc2ncc(F)c(NC[C@@H]3CCCN4CCCC[C@H]34)n2)cc(S(F)(F)(F)(F)F)c1
Place the items in sequence of falling IC50. # answer = labels listed in requested order
1, 2, 3, 4
